Tested on: MDA-MB-436 cells
Experiment: MDA-MB-436 cell proliferation inhibition test (CellTiter-Glo, 7 days)
Assay type: cell-based
Details: Homo sapiens, MDA-MB-436, 168 h, 7 days incubation
pIC50: −log10 of the molar value.
Record Yes whenever pIC50 is at 8 or higher; record No when lower.

# COMPOUND_STRING, TARGET_UNDER_TEST, CLASS
measured = [
    ("CNC(=O)c1ccc(N2CCN(Cc3cc4c5c(c3)ncn5[C@@H](C3CC3)C(=O)N4)CC2)c(Cl)n1", "MDA-MB-436 cells", "No"),
    ("CNC(=O)c1ccc(N2CCN(Cc3cc4c5c(cnn5[C@H](C5CC5)C(=O)N4)c3)CC2)c(Cl)n1", "MDA-MB-436 cells", "Yes"),
    ("CNC(=O)c1ccc(N2CCN(Cc3cc4c5c(c3)ncn5[C@@H](C3CC3)C(=O)N4)CC2)c(C)n1", "MDA-MB-436 cells", "No"),
    ("CNC(=O)c1ccc(N2CCN(Cc3cc4cnn5c4c(c3F)NC(=O)C53CC3)CC2)c(Cl)n1", "MDA-MB-436 cells", "Yes"),
    ("CNC(=O)c1ccc(N2CCN(Cc3cc4c5c(c3)ncn5[C@H](C3CC3)C(=O)N4)CC2)c(C)n1", "MDA-MB-436 cells", "No"),
    ("CCN1C(=O)Nc2cc(CN3CCN(c4ccc(C(=O)NC)nc4C)CC3)cn3ncc1c23", "MDA-MB-436 cells", "Yes"),
    ("CCN1C(=O)Nc2cc(CN3CCN(c4ccc(C(=O)NC)nc4Cl)CC3)cn3ncc1c23", "MDA-MB-436 cells", "Yes"),
    ("CNC(=O)c1ccc(N2CCN(Cc3cc4c5c(cnn5C5(CC5)C(=O)N4)c3)C[C@H]2C)c(C)n1", "MDA-MB-436 cells", "No"),
    ("CNC(=O)c1ccc(N2CCN(Cc3cn4ncc5c4c(c3C)NC(=O)N5C3CC3)CC2)c(C)n1", "MDA-MB-436 cells", "No"),
    ("CNC(=O)c1ccc(N2CCN(Cc3cc4c5c(cnn5c3)N(C3CC3)C(=O)N4)CC2)c(F)n1", "MDA-MB-436 cells", "Yes"),
]

====

Target: Recombinant human PARP1 protein (Homo sapiens, UniProt P09874)
Sequence (P09874 whole entry): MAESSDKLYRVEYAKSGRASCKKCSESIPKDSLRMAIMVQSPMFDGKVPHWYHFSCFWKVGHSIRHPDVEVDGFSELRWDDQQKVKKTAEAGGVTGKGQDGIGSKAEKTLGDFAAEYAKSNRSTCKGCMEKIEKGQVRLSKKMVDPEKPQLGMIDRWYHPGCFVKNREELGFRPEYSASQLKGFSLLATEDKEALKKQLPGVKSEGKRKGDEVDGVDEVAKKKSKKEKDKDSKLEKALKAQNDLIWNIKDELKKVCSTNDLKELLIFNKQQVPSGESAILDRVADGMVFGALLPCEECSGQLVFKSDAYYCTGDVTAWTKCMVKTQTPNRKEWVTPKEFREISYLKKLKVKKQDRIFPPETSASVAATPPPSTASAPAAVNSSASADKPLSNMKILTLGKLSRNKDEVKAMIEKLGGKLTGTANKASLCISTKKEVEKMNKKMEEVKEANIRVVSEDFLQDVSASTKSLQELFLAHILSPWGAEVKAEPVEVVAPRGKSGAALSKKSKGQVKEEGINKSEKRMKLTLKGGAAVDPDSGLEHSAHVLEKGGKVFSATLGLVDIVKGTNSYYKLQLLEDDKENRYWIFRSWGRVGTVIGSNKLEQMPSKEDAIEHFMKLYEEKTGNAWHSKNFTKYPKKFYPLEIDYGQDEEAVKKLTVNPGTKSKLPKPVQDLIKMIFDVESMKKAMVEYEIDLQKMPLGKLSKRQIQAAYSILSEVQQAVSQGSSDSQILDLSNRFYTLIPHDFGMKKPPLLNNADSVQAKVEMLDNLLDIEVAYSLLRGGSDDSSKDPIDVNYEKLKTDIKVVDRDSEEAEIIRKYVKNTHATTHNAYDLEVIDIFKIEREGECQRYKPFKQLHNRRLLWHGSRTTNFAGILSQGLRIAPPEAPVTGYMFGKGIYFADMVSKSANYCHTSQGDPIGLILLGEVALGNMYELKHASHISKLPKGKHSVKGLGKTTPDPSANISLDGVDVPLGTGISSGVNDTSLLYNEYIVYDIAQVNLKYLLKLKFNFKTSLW
Experiment: PARP1 inhibitory activity (histone substrate, chemiluminescent ELISA)
Type: biochemical
Conditions: histone substrate; 500 µM NAD+ added to the substrate solution; read-out: PARP1 IC50
pIC50: −log10 of the molar value.
Here the recorded pIC50 is given for each entry.
MEASUREMENT_LABEL: pIC50

# COMPOUND_STRING, MEASUREMENT_LABEL, NUMERIC_READOUT
records = [
    ("CNC(=O)c1ccc(N2CCN(Cc3cc4c5c(cnn5c3)N(C3CCC3)C(=O)N4)C[C@H]2C)c(C)n1", "pIC50", 8.31),
    ("CNC(=O)c1ccc(N2CCN(Cc3cc4c5c(cnn5C5(CC5)C(=O)N4)c3)C[C@H]2C)c(C)n1", "pIC50", 9.64),
    ("CNC(=O)c1ccc(N2CCN(Cc3cc4c5c(cnn5C5(CC5)C(=O)N4)c3)CC2)c(F)n1", "pIC50", 9.62),
    ("CCN1C(=O)Nc2cc(CN3CCN(c4ccc(C(=O)NC)nc4C)CC3)cn3ncc1c23", "pIC50", 8.91),
    ("CNC(=O)c1ccc(N2CCN(Cc3cc4c5c(cnn5[C@H](C5CC5)C(=O)N4)c3)CC2)c(Cl)n1", "pIC50", 8.98),
    ("CC[C@@H]1C(=O)Nc2cc(CN3CCN(c4ccc(C(=O)NC)nc4F)CC3)cc3cnn1c23", "pIC50", 8.99),
]

====

System: MDA-MB-436 cells
Test: MDA-MB-436 cell proliferation inhibition test (CellTiter-Glo, 7 days)
Assay type: cell-based
Conditions: Homo sapiens, MDA-MB-436, 168 h, 7 days incubation
MEASUREMENT_LABEL: IC50 (nM)

# COMPOUND_STRING, TARGET_UNDER_TEST, QUALIFIER_SYMBOL, NUMERIC_READOUT
records = [
    ("CNC(=O)c1ccc(N2CCN(Cc3cc4c5c(cnn5c3)N(C3CCC3)C(=O)N4)CC2)c(Cl)n1", "MDA-MB-436 cells", "=", 3.2),
    ("CNC(=O)c1ccc(N2CCN(Cc3cc4c5c(cnn5C5(CC5)C(=O)N4)c3)CC2)c(C)n1", "MDA-MB-436 cells", "<", 1.52),
    ("CNC(=O)c1ccc(N2CCN(Cc3cc4c5c(cnn5c3)N(CC(F)(F)F)C(=O)N4)CC2)c(C)n1", "MDA-MB-436 cells", "=", 16.2),
    ("CNC(=O)c1ccc(N2CCN(Cc3cc4c5c(cnn5c3)N(C)C(=O)N4)CC2)c(C)n1", "MDA-MB-436 cells", "<", 1.52),
]

====

Here the recorded half-life is given for each entry.
Test: Preliminary pharmacokinetic tests in mice
Assay type: in vivo
Details: male, ICR, iv; mouse plasma, i.v.(1mg/kg)

# COMPOUND, half-life (min)
measured = [
    ("CNC(=O)c1ccc(N2CCN(Cc3cc4c5c(cnn5C5(CC5)C(=O)N4)c3)C[C@H]2C)c(C)n1", 216),
    ("CNC(=O)c1ccc(N2CCN(Cc3cc4c5c(cnn5C(C)C(=O)N4)c3)CC2)c(Cl)n1 (centres unmarked)", 78),
]

====

Target: Recombinant human PARP1 protein (Homo sapiens)
Experiment: PARP1 inhibitory activity (histone substrate, chemiluminescent ELISA)
Assay type: biochemical
Details: ratio of PARP2 IC50 to PARP1 IC50
Here the recorded PARP1/2 Fold selectivity is given for each entry.

# COMPOUND_STRING, TARGET_UNDER_TEST, PARP1/2 Fold selectivity
rows = [
    ("CNC(=O)c1ccc(N2CCN(Cc3cc4c5c(cnn5CC(=O)N4)c3)CC2)c(Cl)n1", "Recombinant human PARP1 protein (Homo sapiens)", 5150),
    ("CNC(=O)c1ccc(N2CCN(Cc3cc4c5c(cnn5c3)N(C3CC3)C(=O)N4)CC2)c(C)n1", "Recombinant human PARP1 protein (Homo sapiens)", 21.1),
    ("CNC(=O)c1ccc(N2CCN(Cc3cc4c5c(cnn5c3)N(C(C)C)C(=O)N4)CC2)c(C)n1", "Recombinant human PARP1 protein (Homo sapiens)", 364.5),
    ("CNC(=O)c1ccc(N2CCN(Cc3cc4c5c(cnn5c3)N(CCO)C(=O)N4)CC2)c(C)n1", "Recombinant human PARP1 protein (Homo sapiens)", 827.4),
    ("CNC(=O)c1ccc(N2CCN(Cc3cn4ncc5c4c(c3C)NC(=O)N5C3CC3)CC2)c(C)n1", "Recombinant human PARP1 protein (Homo sapiens)", 417.5),
    ("CNC(=O)c1ccc(N2CCN(Cc3cc4c5c(cnn5C5(CC5)C(=O)N4)c3)CC2)c(F)n1", "Recombinant human PARP1 protein (Homo sapiens)", 36.3),
    ("CCN1C(=O)Nc2cc(CN3CCN(c4ccc(C(=O)NC)nc4C)CC3)cn3ncc1c23", "Recombinant human PARP1 protein (Homo sapiens)", 170.8),
    ("CNC(=O)c1ccc(N2CCN(Cc3cc4c5c(cnn5c3)N(C)C(=O)N4)CC2)c(C)n1", "Recombinant human PARP1 protein (Homo sapiens)", 516),
]

====

Assay: Preliminary pharmacokinetic tests in mice
Format: in vivo
Conditions: male, ICR, iv; mouse plasma, i.v.(1mg/kg)

# COMPOUND, clearance (mL/min/kg)
rows = [
    ("CNC(=O)c1ccc(N2CCN(Cc3cc4c5c(cnn5C5(CC5)C(=O)N4)c3)C[C@H]2C)c(C)n1 [Compound 40]", 3.8),
    ("CNC(=O)c1ccc(N2CCN(Cc3cc4c5c(cnn5C(C)C(=O)N4)c3)CC2)c(Cl)n1 (centres unmarked) [Compound 6]", 3.3),
]

====

Assay: Preliminary pharmacokinetic tests in mice
Format: in vivo
Details: male, ICR, plasma, oral; mouse, p.o.(5mg/kg) versus i.v.(1mg/kg)
Here the recorded bioavailability is given for each entry.

# COMPOUND, bioavailability (%)
measured = [
    ("CNC(=O)c1ccc(N2CCN(Cc3cc4c5c(cnn5C5(CC5)C(=O)N4)c3)C[C@H]2C)c(C)n1", 124),
    ("CNC(=O)c1ccc(N2CCN(Cc3cc4c5c(cnn5C(C)C(=O)N4)c3)CC2)c(Cl)n1 (centres unmarked)", 117),
]

====

System: MDA-MB-436 cells
Experiment: MDA-MB-436 cell proliferation inhibition test (CellTiter-Glo, 7 days)
Assay type: cell-based
Settings: Homo sapiens, MDA-MB-436, 168 h, 7 days incubation
pIC50: −log10 of the molar value.

# COMPOUND, TARGET_UNDER_TEST, QUALIFIER_SYMBOL, pIC50
rows = [
    ("CCN1C(=O)Nc2cc(CN3CCN(c4ccc(C(=O)NC)nc4F)CC3)cn3ncc1c23", "MDA-MB-436 cells", ">", 8.82),
    ("CCC1C(=O)Nc2cc(CN3CCN(c4ccc(C(=O)NC)nc4Cl)CC3)cc3cnn1c23 (stereo not shown)", "MDA-MB-436 cells", "=", 7.90),
    ("CNC(=O)c1ccc(N2CCN(Cc3cc4c5c(cnn5c3)N(CCO)C(=O)N4)CC2)c(C)n1", "MDA-MB-436 cells", "=", 7.77),
    ("CNC(=O)c1ccc(N2CCN(Cc3cc4c5c(cnn5c3)N(CC3CCC3)C(=O)N4)CC2)c(C)n1", "MDA-MB-436 cells", "=", 6.14),
    ("CNC(=O)c1ccc(N2CCN(Cc3cc4c5c(c3)ncn5C(C3CCC3)C(=O)N4)CC2)c(Cl)n1 (stereo not shown)", "MDA-MB-436 cells", "=", 8.34),
    ("CNC(=O)c1ccc(N2CCN(Cc3cc4c5c(c(C)nn5c3)N(C)C(=O)N4)CC2)c(C)n1", "MDA-MB-436 cells", "=", 8.89),
    ("CNC(=O)c1ccc(N2CCN(Cc3cc4c5c(c(C(F)(F)F)nn5c3)N(C)C(=O)N4)CC2)c(C)n1", "MDA-MB-436 cells", "=", 8.92),
    ("CNC(=O)c1ccc(N2CCN(Cc3cc4c5c(cnn5c3)N(CC(C)O)C(=O)N4)CC2)c(C)n1 (stereo not shown)", "MDA-MB-436 cells", "=", 6.41),
    ("CNC(=O)c1ccc(N2CCN(Cc3cc4c5c(cnn5c3)N(C3CCC3)C(=O)N4)[C@H](C)C2)c(Cl)n1", "MDA-MB-436 cells", "=", 7.73),
    ("CNC(=O)c1ccc(N2CCN(Cc3cc4c5c(cnn5C5(CC5)C(=O)N4)c3)CC2)c(Cl)n1", "MDA-MB-436 cells", ">", 8.82),
    ("CNC(=O)c1ccc(N2CCN(Cc3cc4c5c(cnn5c3)N(C3CC3)C(=O)N4)CC2)c(C)n1", "MDA-MB-436 cells", ">", 8.82),
    ("CNC(=O)c1ccc(N2CCN(Cc3cc4c5c(cnn5c3)N(C3CCC3)C(=O)N4)[C@H](C)C2)c(C)n1", "MDA-MB-436 cells", "=", 7.66),
    ("CC1C(=O)Nc2cc(CN3CCN(c4ccc(C#N)cn4)CC3)cc3cnn1c23 (stereo not shown)", "MDA-MB-436 cells", "=", 6.67),
    ("CC[C@H]1C(=O)Nc2cc(CN3CCN(c4ccc(C(=O)NC)nc4F)CC3)cc3cnn1c23", "MDA-MB-436 cells", "=", 7.56),
    ("CNC(=O)c1ccc(N2CCN(Cc3cc4c5c(cnn5c3)NC(=O)N4)CC2)c(C)n1", "MDA-MB-436 cells", "=", 7.76),
    ("CC[C@@H]1C(=O)Nc2cc(CN3CCN(c4ccc(C(=O)NC)nc4F)CC3)cc3cnn1c23", "MDA-MB-436 cells", "=", 7.83),
]
